Could you please report measured glycan array binding signal (z-score) for the items listed next?
# Assayed target: Neu5Ac(a2-3)Gal(b1-3)GlcNAc6S
# Test details: glycan array binding signal (z-score within array); higher = stronger binding
# Condition notes: glycan notation: IUPAC condensed, linker removed
About 410 targets per protein were measured; listed, in parts, are those with the strongest signals and a random draw of the rest.
When you answer, write just the number.

What does the data say about its glycan array binding signal (z-score)? Entry: Epa2 (Candida glabrata) (protein) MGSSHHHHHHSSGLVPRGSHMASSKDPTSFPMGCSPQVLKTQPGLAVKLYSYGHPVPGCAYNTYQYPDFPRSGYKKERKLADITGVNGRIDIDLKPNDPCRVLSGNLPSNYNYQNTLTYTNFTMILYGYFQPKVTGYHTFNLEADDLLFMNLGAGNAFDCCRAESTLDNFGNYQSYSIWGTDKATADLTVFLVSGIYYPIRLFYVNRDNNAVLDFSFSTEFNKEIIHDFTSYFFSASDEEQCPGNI
0.604

What does the data say about its glycan array binding signal (z-score)? Entry: SefD (Salmonella enterica), Q9L6K6 (protein) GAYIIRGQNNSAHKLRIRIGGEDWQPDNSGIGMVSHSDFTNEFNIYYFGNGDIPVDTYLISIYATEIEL
-0.237

What does the data say about its glycan array binding signal (z-score)? Entry: Pwp2 (Candida glabrata) (protein) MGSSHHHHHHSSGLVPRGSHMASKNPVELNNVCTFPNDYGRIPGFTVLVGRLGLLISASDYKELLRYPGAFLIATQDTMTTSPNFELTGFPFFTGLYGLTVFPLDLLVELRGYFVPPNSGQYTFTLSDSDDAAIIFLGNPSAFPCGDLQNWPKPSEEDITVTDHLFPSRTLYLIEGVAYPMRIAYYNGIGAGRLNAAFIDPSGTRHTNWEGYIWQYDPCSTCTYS
-0.456

src = the supplement of paper PMC8728848
